// each record: one item and its IC50 for Cytochrome P450 3A4 (Homo sapiens, UniProt P08684)
I only need the number, in nM, no unit after it.

Consider the reported IC50 for these compounds:
# STRUCTURE, IC50 / nM
rows = [
    ("Cc1n[nH]c2cnc(-c3cc(OC[C@@H](N)Cc4c[nH]c5ccccc45)cnc3-c3ccoc3)cc12", 16),
    ("Cc1n[nH]c2ncc(-c3cc(OC[C@@H](N)Cc4c[nH]c5ccccc45)cnc3-c3ccoc3)cc12", 200),
    ("Cc1n[nH]c2ncc(-c3cc(OC[C@@H](N)Cc4c[nH]c5ccccc45)cnc3-c3ccoc3)nc12", 400),
]

Kindly review the next compound as well.
Sample `Cc1n[nH]c2cnc(-c3cc(OC[C@@H](N)Cc4c[nH]c5ccccc45)cnc3-c3ccoc3)nc12` — what was its IC50?
1300
